# reported Kd; entries follow
TESTED ON: FGFR3 (Homo sapiens, UniProt P22607)
Construct: made in house; host or cells: E. coli derived from BL21, infected with T7 phage
Sequence (P22607 23-806): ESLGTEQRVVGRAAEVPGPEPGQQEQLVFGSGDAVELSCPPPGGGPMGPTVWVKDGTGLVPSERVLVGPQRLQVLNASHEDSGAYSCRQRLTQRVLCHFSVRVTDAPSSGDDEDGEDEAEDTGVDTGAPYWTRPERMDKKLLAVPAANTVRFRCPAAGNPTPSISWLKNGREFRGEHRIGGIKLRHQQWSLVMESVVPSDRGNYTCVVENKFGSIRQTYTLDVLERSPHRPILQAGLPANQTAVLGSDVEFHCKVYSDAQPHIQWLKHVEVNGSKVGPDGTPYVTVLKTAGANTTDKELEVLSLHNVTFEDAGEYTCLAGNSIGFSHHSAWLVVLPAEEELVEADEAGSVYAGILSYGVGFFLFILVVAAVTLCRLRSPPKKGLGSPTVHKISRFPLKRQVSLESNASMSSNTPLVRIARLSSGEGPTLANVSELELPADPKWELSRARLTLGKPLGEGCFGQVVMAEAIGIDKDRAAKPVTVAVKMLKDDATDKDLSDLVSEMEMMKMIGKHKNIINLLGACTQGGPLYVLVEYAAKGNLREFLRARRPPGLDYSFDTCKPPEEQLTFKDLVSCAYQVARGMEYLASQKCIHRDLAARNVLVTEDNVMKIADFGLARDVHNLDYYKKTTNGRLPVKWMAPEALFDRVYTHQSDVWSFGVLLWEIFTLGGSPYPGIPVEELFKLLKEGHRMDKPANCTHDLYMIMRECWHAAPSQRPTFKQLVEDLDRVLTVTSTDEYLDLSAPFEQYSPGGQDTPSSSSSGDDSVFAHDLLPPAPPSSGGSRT
ASSAY: Kinase binding assay (kinase-tagged T7 phage, qPCR), Kd
EXPERIMENTAL PARAMETERS: read-out: FGFR3 (Kd nM)
Protocol: Kinase-tagged T7 phage strains were prepared in an E. coli host derived from the BL21 strain. E. coli were grown to log-phase and infected with T7 phage and incubated with shaking at 32° C. until lysis. The lysates were centrifuged and filtered to remove cell debris. […] Test compounds were prepared as 111X stocks in 100% DMSO. Kds were determined using an 11-point 3-fold compound dilution series with three DMSO control points. […] The kinase concentration in the eluates was measured by qPCR. […]

Known Kd results, listed for orientation:
The recorded Kd for entry C[C@@H](Oc1ccc2[nH]nc(-c3cnc4c(c3)N(S(C)(=O)=O)CCO4)c2c1)c1c(Cl)cncc1Cl [Example 137] equals 0.1 to 100 nM

The recorded Kd for entry Cc1cnnc(C)c1[C@H](C)Oc1ccc2[nH]nc(-c3cc(C#N)cc(N4CCN(C)CC4)c3)c2c1 [Example 66] equals > 1000 nM

The recorded Kd for entry C[C@@H](Oc1ccc2[nH]nc(-c3ccc(OC4C5CN(S(C)(=O)=O)CC54)nc3)c2c1)c1c(Cl)cncc1Cl (stereo partly shown) [Example 162] equals 0.1 to 100 nM

The recorded Kd for entry COc1ncc(-c2n[nH]c3ccc(O[C@H](C)c4c(Cl)cncc4Cl)cc23)cc1NC(=O)N1CCN(C)CC1 [Example 7] equals 100 to 250 nM

The recorded Kd for entry Cc1cnnc(C)c1[C@@H](C)Oc1ccc2[nH]nc(-c3cc(C#N)cc(N4CC5(CN(C)C5)C4)c3)c2c1 [Example 87] equals 250 to 1000 nM

Others:
The recorded Kd for entry C[C@@H](Oc1ccc2[nH]nc(-c3cnc4c(c3)N(CCO)CCO4)c2c1)c1c(Cl)cncc1Cl [Example 49] equals 250 to 1000 nM

The recorded Kd for entry C[C@@H](Oc1ccc2[nH]nc(-c3ccc(NC4CC5(C4)CN(S(C)(=O)=O)C5)nc3)c2c1)c1c(Cl)cncc1Cl [Example 159] equals 0.1 to 100 nM
